biological target: SIK2 (Homo sapiens); construct: purchased ThermoFisher Scientific PV4792; assay: biochemical; conditions: 33P radioactive SIK kinase assay, AMARA peptide, 10 μM ATP
Sequence (Q9H0K1 whole entry): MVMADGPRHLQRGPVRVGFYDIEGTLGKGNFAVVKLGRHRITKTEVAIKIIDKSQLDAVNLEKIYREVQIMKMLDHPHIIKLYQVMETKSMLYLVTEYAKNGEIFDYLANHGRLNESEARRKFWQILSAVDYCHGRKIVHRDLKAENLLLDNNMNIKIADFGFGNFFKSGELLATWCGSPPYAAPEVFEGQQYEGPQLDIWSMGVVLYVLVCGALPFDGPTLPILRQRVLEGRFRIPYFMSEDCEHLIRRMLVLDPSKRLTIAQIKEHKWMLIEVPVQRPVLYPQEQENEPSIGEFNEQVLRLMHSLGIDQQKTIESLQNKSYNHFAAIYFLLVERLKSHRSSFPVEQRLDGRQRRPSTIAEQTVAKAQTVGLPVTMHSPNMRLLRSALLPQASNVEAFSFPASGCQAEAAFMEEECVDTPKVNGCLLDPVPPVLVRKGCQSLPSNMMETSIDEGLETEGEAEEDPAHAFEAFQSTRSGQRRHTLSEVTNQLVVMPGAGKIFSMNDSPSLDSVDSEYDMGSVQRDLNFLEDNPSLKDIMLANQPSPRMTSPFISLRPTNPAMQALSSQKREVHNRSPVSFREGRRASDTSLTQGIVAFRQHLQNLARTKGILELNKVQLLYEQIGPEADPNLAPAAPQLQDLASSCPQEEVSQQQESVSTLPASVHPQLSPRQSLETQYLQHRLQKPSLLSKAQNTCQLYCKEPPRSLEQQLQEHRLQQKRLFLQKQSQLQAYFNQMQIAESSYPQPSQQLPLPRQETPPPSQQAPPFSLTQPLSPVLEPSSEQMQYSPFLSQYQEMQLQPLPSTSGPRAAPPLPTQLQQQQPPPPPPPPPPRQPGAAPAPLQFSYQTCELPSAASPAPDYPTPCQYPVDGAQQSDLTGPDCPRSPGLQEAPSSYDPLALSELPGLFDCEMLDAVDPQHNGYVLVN
pIC50: −log10 of the molar value.
Value Kind: pIC50

Problem: # return recorded pIC50 for input COc1cc(-n2cnc3cc(-c4cncnc4)ccc32)cc(OC)c1C(=O)NCC(F)(F)F
Result: 6.30 to 7.00

Problem: # return recorded pIC50 for input COC(=O)CCCn1cc(-c2ccn3c(-c4cc(OC)c(C(=O)NCC(F)(F)F)c(OC)c4)cnc3c2)cn1
Result: 8.00 to 11.00

Problem: # return recorded pIC50 for input COc1cc(-n2cnc3cc(-c4ccn(C)n4)ccc32)cc(OC)c1C(=O)NCC(F)(F)F
Result: 7.00 to 8.00

Problem: # return recorded pIC50 for input CCN1Cc2cc(-c3cnc4cc(-c5cnn(C)c5)ccn34)cc(OC)c2C1=O
Result: 7.00 to 8.00

Problem: # return recorded pIC50 for input CCNC(=O)c1c(OC)cc(-n2cnc3cc(-c4ccc(N5CCOCC5)nc4)ccc32)cc1OC
Result: 7.00 to 8.00

Problem: # return recorded pIC50 for input COc1cc(-c2cnc3cc(-c4cnc(N)nc4)ccn23)cc(OC)c1C(=O)NCC(F)(F)F
Result: 7.00 to 8.00

Problem: # return recorded pIC50 for input CCC(C)NC(=O)c1c(OC)cc(-n2cnc3cc(-c4cnn(C)c4)ccc32)cc1OC (centres unmarked)
Result: 6.30 to 7.00

Problem: # return recorded pIC50 for input COc1cc(-n2cnc3cc(-c4cnn(C)c4)ccc32)cc(OC)c1C(=O)N[C@@H]1CC[C@H]1O
Result: 7.00 to 8.00
